These data points were gathered from ChEMBL document CHEMBL2203203.

species: Homo sapiens; test: Selectivity ratio of EC50 for human CB1 receptor to EC50 for human CB2 receptor
Record form. Attribute: Ratio EC50. Fill in for each entry.
Could you keep your reply to the number by itself?

Query (compound): `O=C(Nc1sc2c(c1C(=O)N1CCCCC1)CCOC2)c1c(F)cccc1C(F)(F)F` ; field requested: Ratio EC50
71

What do we get for `CC(C)(C)CC(=O)Nc1sc2c(c1C(=O)N1CCC(F)(F)CC1)CCCC2` ?
24

Same question for `CC(C)c1ccccc1C(=O)Nc1sc2c(c1C(=O)N1CCOCC1)CCOC2` please.
42

---

target: Cannabinoid receptor 2 (Homo sapiens); experiment: Agonist activity at human CB2 receptor after 4 hrs by luciferase reporter gene assay relative to control; format: functional
Sequence (P34972 whole entry): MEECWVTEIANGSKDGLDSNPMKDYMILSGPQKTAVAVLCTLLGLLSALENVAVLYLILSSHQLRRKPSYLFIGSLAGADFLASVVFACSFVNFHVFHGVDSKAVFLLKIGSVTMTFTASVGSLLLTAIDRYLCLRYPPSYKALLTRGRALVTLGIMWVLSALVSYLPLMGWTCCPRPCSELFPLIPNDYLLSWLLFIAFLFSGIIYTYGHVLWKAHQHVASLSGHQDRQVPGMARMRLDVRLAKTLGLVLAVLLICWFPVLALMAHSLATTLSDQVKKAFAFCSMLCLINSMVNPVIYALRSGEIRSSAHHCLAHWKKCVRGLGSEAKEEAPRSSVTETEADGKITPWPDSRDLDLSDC
attribute.measured: Efficacy (%)
Give the number; % is assumed, so skip it.

# Efficacy lookup, item `COCCNC(=O)c1c(NC(=O)CC(C)(C)C)sc2c1CCCC2`
94

Also COCCNC(=O)c1c(NC(=O)C2CCCN2C(=O)C2CC2)sc2c1CCCC2 (stereo not drawn) , if possible.
88

And `COC1CN(C(=O)c2c(NC(=O)c3ccccc3OC(F)(F)F)sc3c2CCOC3)C1` ?
100

Queued: `O=C(Nc1sc2c(c1C(=O)N1CC(F)(F)C1)CCOC2)c1ccccc1OC(F)(F)F`
104

Consider next the compound `O=C(Nc1sc2c(c1C(=O)N1CC(F)(F)C1)CCOC2)c1ccccc1C(F)(F)F` in the same way.
106

Also `COCCNC(=O)c1c(NC(=O)CC(C)(C)C)sc2c1C(C)(C)CC2` , if possible.
100

For `COCCNC(=O)c1c(NC(=O)c2c(F)cccc2C(F)(F)F)sc2c1CCOC2` then?
96

Now give it for `O=C(Nc1sc2c(c1C(=O)N1CCOCC1)CCOC2)c1ccccc1-c1ccccc1` too.
63

For `COCCNC(=O)c1c(NC(=O)c2ccccc2C(F)(F)F)sc2c1CCOC2` then?
93

Same question, `O=C(Nc1sc2c(c1C(=O)N1CCOCC1)CCOC2)c1cccc(Cl)c1` this time
98

Follow-up entry: `COCC(C)(C)NC(=O)c1c(NC(=O)c2c(F)cccc2C(F)(F)F)sc2c1CCOC2`
94

Same for `CC(C)(C)CC(=O)Nc1sc2c(c1C(=O)NCC1CC1)C(C)(C)CC2`
101

// repeat for `CC1(C)CCc2sc(NC(=O)c3ccccc3Cl)c(C(=O)NCC3CC3)c21` and report
116

Repeat with `O=C(Nc1sc2c(c1C(=O)N1CCOCC1)CCOC2)c1ccccc1Cl`
112

Another compound to look at: `CC(C)c1ccccc1C(=O)Nc1sc2c(c1C(=O)N1CCOCC1)CCOC2`
101

`COCCNC(=O)c1c(NC(=O)CC(C)(C)C)sc2c1CCOC2` ?
101

Same question for `O=C(Nc1sc2c(c1C(=O)NCC1CC1)CCOC2)c1c(F)cccc1C(F)(F)F` please.
112

Next up: `O=C(Nc1sc2c(c1C(=O)N1CCC(F)(F)CC1)CCOC2)c1ccccc1C(F)(F)F`
99

Next compound up: `COC1CN(C(=O)c2c(NC(=O)c3ccccc3C(F)(F)F)sc3c2CCOC3)C1`
98

Queued: CC1OCc2sc(NC(=O)CC(C)(C)C)c(C(=O)N3CCCCC3)c21 (stereo not drawn)
91

What about `COCC(C)(C)NC(=O)c1c(NC(=O)c2ccccc2C(F)(F)F)sc2c1CCOC2` ?
93

Please give the result for `O=C(Nc1sc2c(c1C(=O)N1CCOCC1)CCOC2)c1c(Cl)cccc1Cl` too.
76

Continue with `COC1CN(C(=O)c2c(NC(=O)CC(C)(C)C)sc3c2CCCC3)C1`
110

Okay, and `CC(C)(C)CC(=O)Nc1sc2c(c1C(=O)N1CCC(F)(F)CC1)CCCC2` ?
82

`COCCNC(=O)c1c(NC(=O)C2CCCC2)sc2c1CCOC2` , same question.
84

Another: `O=C(Nc1sc2c(c1C(=O)N1CCOCC1)CCOC2)c1ccccc1OC(F)F`
96

Now try `O=C(Nc1sc2c(c1C(=O)N1CCOCC1)CCOC2)c1ccccc1C(F)(F)F` .
102

Please give the result for `COCCNC(=O)c1c(NC(=O)CN2CCCCC2)sc2c1CCCC2` too.
98

Another compound to check: `O=C(Nc1sc2c(c1C(=O)N1CCCCC1)CCOC2)c1c(F)cccc1C(F)(F)F`
103

Quick one: `Cc1ccccc1C(=O)Nc1sc2c(c1C(=O)N1CCOCC1)CCOC2`
105

Note, next up: `O=C(Nc1sc2c(c1C(=O)N1CCCCC1)CCOC2)c1ccccc1C(F)(F)F`
99

Please give the result for `O=C(Nc1sc2c(c1C(=O)N1CCOCC1)CCCC2)c1ccccc1Cl` too.
95

Would you mind doing `O=C(CN1CCCCC1)Nc1sc2c(c1C(=O)N1CC(F)(F)C1)CCCC2` as well?
103

---

species on record: Homo sapiens; assay: Selectivity ratio of EC50 for human CB1 receptor to EC50 for human CB2 receptor
attribute.measured: Ratio EC50
The answer should be a number; do not append a unit.

Would you mind telling me what Ratio EC50 value was observed for `O=C(Nc1sc2c(c1C(=O)NCC1CC1)CCOC2)c1c(F)cccc1C(F)(F)F` ?
74

What about this compound? `COC1CN(C(=O)c2c(NC(=O)c3ccccc3C(F)(F)F)sc3c2CCOC3)C1`
387

Then this compound: `O=C(Nc1sc2c(c1C(=O)NCC1CC1)CCOC2)c1ccccc1OC(F)(F)F`
15

Query `O=C(Nc1sc2c(c1C(=O)N1CC(F)(F)C1)CCOC2)c1ccccc1OC(F)(F)F` next
420

Moving on to `COC1CN(C(=O)c2c(NC(=O)CC(C)(C)C)sc3c2CCCC3)C1`
85

Could you do the same for `O=C(Nc1sc2c(c1C(=O)N1CCOCC1)CCCC2)c1ccccc1Cl` , please?
25

---

molecular target: Cannabinoid receptor 1 (Homo sapiens); test: Agonist activity at human CB1 receptor after 4 hrs by luciferase reporter gene assay relative to control; assay type: functional
Sequence (P21554 whole entry): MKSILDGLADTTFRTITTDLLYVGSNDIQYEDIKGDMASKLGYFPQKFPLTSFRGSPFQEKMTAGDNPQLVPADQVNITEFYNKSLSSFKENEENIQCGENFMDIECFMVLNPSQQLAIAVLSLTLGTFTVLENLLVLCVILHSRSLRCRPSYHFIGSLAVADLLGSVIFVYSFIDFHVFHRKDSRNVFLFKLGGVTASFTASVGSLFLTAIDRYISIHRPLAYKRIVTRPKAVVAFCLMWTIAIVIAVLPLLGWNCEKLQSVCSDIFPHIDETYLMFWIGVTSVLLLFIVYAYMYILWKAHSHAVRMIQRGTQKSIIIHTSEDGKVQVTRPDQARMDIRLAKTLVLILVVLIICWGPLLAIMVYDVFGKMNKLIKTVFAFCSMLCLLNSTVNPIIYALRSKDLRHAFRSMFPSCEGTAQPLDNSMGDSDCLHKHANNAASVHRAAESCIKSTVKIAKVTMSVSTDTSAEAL
Provide the recorded Efficacy for the entries that follow.

What value of Efficacy on Cannabinoid receptor 1 (Homo sapiens) does `O=C(Nc1sc2c(c1C(=O)N1CC(F)(F)C1)CCOC2)c1c(F)cccc1C(F)(F)F` have?
83%

Would you kindly repeat that for `CC(C)c1ccccc1C(=O)Nc1sc2c(c1C(=O)N1CCOCC1)CCOC2` ?
105%

Same again, this time with `O=C(Nc1sc2c(c1C(=O)N1CCOCC1)CCOC2)c1ccccc1C(F)(F)F`
84%

Here is the next molecule: CC1OCc2sc(NC(=O)CC(C)(C)C)c(C(=O)N3CC(F)(F)C3)c21 (centres undefined)
94%

---

Kindly state Efficacy for each of the entries shown.
biological target: UniProtKB P34972; test: Agonist activity at human CB2 receptor after 4 hrs by luciferase reporter gene assay relative to control; type: functional
Please respond with the number in % and leave the unit unwritten.

Fill in: Efficacy of `O=C(Nc1sc2c(c1C(=O)N1CC(F)(F)C1)CCC(F)(F)C2)c1ccccc1OC(F)(F)F` is ___
99

Follow-up entry: CC1OCc2sc(NC(=O)CC(C)(C)C)c(C(=O)N3CC(F)(F)C3)c21 (stereo not given)
105

Proceed to `CC(C)(C)C(=O)c1c(NC(=O)c2ccccc2C(F)(F)F)sc2c1CCOC2`
88

Also need `COCC(C)(C)NC(=O)c1c(NC(=O)c2ccccc2OC(F)(F)F)sc2c1CCOC2` , thanks.
81

Then what about the molecule `O=C(Nc1sc2c(c1C(=O)N1CC(F)(F)C1)CCC(F)(F)C2)c1ccccc1Cl` ?
98

---

What Ratio EC50 was measured for each of the following?
species: Homo sapiens; assay: Selectivity ratio of EC50 for human CB1 receptor to EC50 for human CB2 receptor

What value of Ratio EC50 has been reported for the following molecule? `COCCNC(=O)c1c(NC(=O)c2ccccc2OC(F)(F)F)sc2c1CCOC2`
> 104

Thanks! And `CC(C)(C)C(=O)c1c(NC(=O)c2ccccc2OC(F)(F)F)sc2c1CCOC2` ?
> 11

For `COCCNC(=O)c1c(NC(=O)c2ccccc2OC(F)(F)F)sc2c1CCC(F)(F)C2` then?
> 145

Also `O=C(CN1CCCC1)Nc1sc2c(c1C(=O)N1CCC(F)(F)CC1)CCCC2` , if possible.
> 48

Could you do the same for `CC(C)(C)CC(=O)Nc1sc2c(c1C(=O)N1CCC(F)(F)CC1)C(C)(C)CC2` , please?
> 77

---

target: Cannabinoid receptor 2 (Homo sapiens); assay: Agonist activity at human CB2 receptor after 4 hrs by luciferase reporter gene assay
attribute.measured: log10(EC50) (log10 of the value in nM)
Units before log transform: nM; reported quantity: EC50; transform: log10.

Fill in: log10(EC50) of `O=C(Nc1sc2c(c1C(=O)N1CCOCC1)CCOC2)c1c(Cl)cccc1Cl` is ___
2.84

Quick one: `COC1CN(C(=O)c2c(NC(=O)CC(C)(C)C)sc3c2CCCC3)C1`
1.67

Moving on to `COCCNC(=O)c1c(NC(=O)C2CCC2)sc2c1CCCC2`
2.30

Then this molecule: `O=C(Nc1sc2c(c1C(=O)NCC1CC1)CCOC2)c1ccccc1OC(F)(F)F`
1.54

And the next one, `COC1CN(C(=O)c2c(NC(=O)c3ccccc3C(F)(F)F)sc3c2CCOC3)C1` ?
1.18

Then what about the molecule `O=C(Nc1sc2c(c1C(=O)N1CCCCC1)CCOC2)c1ccccc1C(F)(F)F` ?
0.48

Moving on to the next molecule: `COCCNC(=O)c1c(NC(=O)c2ccccc2OC(F)(F)F)sc2c1CCOC2`
1.98

Try this molecule too: `Cc1ccccc1C(=O)Nc1sc2c(c1C(=O)N1CCOCC1)CCOC2`
2.81

How about `CC(C)(C)C(=O)c1c(NC(=O)c2ccccc2C(F)(F)F)sc2c1CCOC2` ?
2.95

Next molecule: `COCC(C)(C)NC(=O)c1c(NC(=O)c2c(F)cccc2C(F)(F)F)sc2c1CCOC2`
1.87

Then `O=C(Nc1sc2c(c1C(=O)N1CCCCC1)CCOC2)c1ccccc1OC(F)(F)F` ?
0.98
